test system: SARS-CoV-2; assay type: cell-based; details: IC50 Vero cell cytotoxicity divided by EC50 of the antiviral assay
Measured SI (selectivity index), listed per entry for reference.
Answer with a number only.

Sample answers from the record:
compound	SI (selectivity index)
Cn1c(C(=O)Nc2ccc3c(c2)OCCO3)cc2c(=O)n3ccccc3nc21 [Compound 29]	2909
Cn1c(C(=O)Nc2ccc(Cl)cc2)cc2c(=O)n3ccccc3nc21 [Compound 22]	1766
Cc1cccn2c(=O)c3cc(C(=O)Nc4ccc(N(C)C)cc4)n(C)c3nc12 [Compound 26]	2323
CCC(CC)COC(=O)[C@H](C)N[P@](=O)(OC[C@H]1O[C@@](C#N)(c2ccc3c(N)ncnn23)[C@H](O)[C@@H]1O)Oc1ccccc1 [Remdesivir, reference compound]	7195
Cc1cc(NC(=O)c2cc3c(=O)n4cccc(C)c4nc3n2C)ccc1Br [Compound 28]	1278

Prompt line: Fill in the blank: the reported SI (selectivity index) of CC(=O)c1cccc(NC(=O)c2cc3c(=O)n4ccccc4nc3n2C)c1 [Compound 25] is ____.
Response line: 1135

Prompt line: And then CCc1ccc(NC(=O)c2cc3c(=O)n4ccccc4nc3n2C)cc1 [Compound 24] , what is it?
Response line: 283.3

Prompt line: And then O=C(Nc1ccccc1F)c1cc2c(=O)n3ccccc3nc2n1Cc1ccccc1 [Compound 21] , what is it?
Response line: 3544

Prompt line: And then Cc1ccc(NC(=O)c2cc3c(=O)n4cccc(C)c4nc3n2C)cc1Cl [Compound 27] , what is it?
Response line: 622.2

====

molecular target: SARS-CoV-2 M^pro (Severe acute respiratory syndrome coronavirus 2, UniProt P0DTD1)
readout-name: pIC50
The read-out pIC50 is expressed as -log10 of concentration in moles per litre.

                                   molecule  result_number
0  Cc1ccc(NC(=O)c2cc3c(=O)n4cccc(C)c4nc3n2C)cc1Cl [Compound 27]           3.78
1  CC(=O)c1cccc(NC(=O)c2cc3c(=O)n4ccccc4nc3n2C)c1 [Compound 25]           5.27
2  Cc1cc(NC(=O)c2cc3c(=O)n4cccc(C)c4nc3n2C)ccc1Br [Compound 28]           4.34
3  Cn1c(C(=O)Nc2ccc(Cl)cc2)cc2c(=O)n3ccccc3nc21 [Compound 22]           3.63
4  O=C(Nc1ccccc1F)c1cc2c(=O)n3ccccc3nc2n1Cc1ccccc1 [Compound 21]           4.60
5  Cc1cccn2c(=O)c3cc(C(=O)Nc4ccc(N(C)C)cc4)n(C)c3nc12 [Compound 26]           3.39
6  Cn1c(C(=O)Nc2ccc3c(c2)OCCO3)cc2c(=O)n3ccccc3nc21 [Compound 29]           5.49

Now let's try a different one.
Prompt line: Fill in the blank: the reported pIC50 of CCc1ccc(NC(=O)c2cc3c(=O)n4ccccc4nc3n2C)cc1 [Compound 24] is ____.
Response line: 4.09
